- Tested on: ERK8
- Construct: gene MAPK15
- Experimental context: concentration: 1 μM, replicates: in singlicate; n = 1
Reported property: %Inh (%)
Unit % implied. Number only.

Solved entries:
compound=O=C(c1ccc(-c2cc(-c3c[nH]nc3-c3ccccn3)ccn2)cc1)N1CCCC1 obs_value=0
compound=NC(=O)c1sc(-n2cnc3ccccc32)cc1OCc1ccccc1F obs_value=26
compound=O=C(NCCCN1CCCC1=O)c1cnc(NCc2cc(Cl)ccc2Cl)nc1NC1CCNCC1 obs_value=17
compound=O=C(CCO)NCCn1ccc2ncnc(Nc3ccc(Oc4cccc(C(F)(F)F)c4)c(Cl)c3)c21 obs_value=0

Q: Provide %Inh, tested on ERK8, for COc1ccc(Nc2nccc(N3CCC(NC(=O)Nc4ccc5c(c4)OCO5)C3)n2)cc1 (stereo not drawn) .
Result: 48

Q: Provide %Inh, tested on ERK8, for "CNc1nccc(-c2c(-c3ccc(F)cc3)ncn2C2CCN(C)CC2)n1" .
Result: 6

---

- System: VPS34
- Construct: gene PIK3C3
- Experimental context: concentration: 1 μM, replicates: in singlicate; n = 1
Reported property: %Inh (%)
Unit % implied. Number only.

substance_smiles=CNc1nccc(-c2c(-c3ccc(F)cc3)ncn2C2CCN(C)CC2)n1 units_label=% obs_value=0
substance_smiles=Cn1cc(-c2ccc3c(c2)CCN3C(=O)Cc2cccc(C(F)(F)F)c2)c2c(N)ncnc21 units_label=% obs_value=22

Q: Item "CCC(CC)(CC)n1cnc2c(N)ncnc21" : provide %Inh
Result: 34

Q: Item "Nc1nc(-c2ccc3c(N)n[nH]c3c2)cc(N2CCC[C@@H](C(=O)Nc3ccccc3)C2)n1.O=C(O)C(F)(F)F.O=C(O)C(F)(F)F" : provide %Inh
Result: 0

Q: Item "CC(C)(C)c1ccc(-n2cnc3c(N)ncnc32)cc1" : provide %Inh
Result: 0

Q: Item "O=C(Nc1ccccc1)Nc1ccc(Oc2ccc3nccn3n2)cc1" : provide %Inh
Result: 14

Q: Item "COc1cc2c(Nc3cccc(NC(=O)c4ccccc4)c3)ncnc2cc1OCCCN1CCOCC1" : provide %Inh
Result: 0

Q: Item "Cc1ccc(C)c(NC(=O)NCCNc2ccnc(Nc3ccc(F)cc3)n2)c1" : provide %Inh
Result: 0

Q: Item "Nc1nc(-c2ccc3c(N)n[nH]c3c2)cc(N2CCCCC2)n1" : provide %Inh
Result: 0

---

- Tested on: PLK3
- Experimental context: concentration: 1 μM, replicates: in singlicate; n = 1
# reported %Inh; entries follow
Unit % implied. Number only.

Q: Item O=c1cc(N2CCOCC2)nc2n(Cc3cccc(Cl)c3)ccn12 [GSK2296823] : provide %Inh
Result: 0

---

- System: ACVR1B
- Experimental context: concentration: 1 μM, replicates: in singlicate; n = 1
Reported property: %Inh (%)
Unit % implied. Number only.

Solved entries:
compound=Fc1ccc(-c2ncn(CCCNCc3ccccc3)c2-c2ccncc2)cc1 obs_value=10
compound="CCCc1ccc(S(=O)(=O)NC2CCN(c3ccnc(Nc4ccc(OC)cc4)n3)C2)cc1 (stereo not drawn)" obs_value=0
compound=Fc1ccc(Nc2nccc(-c3c(-c4ccc(Cl)cc4)nn4ncccc34)n2)cc1F obs_value=20
compound=CCC(CC)(CC)n1cnc2c(N)ncnc21 obs_value=10
compound=Cc1ccc(NC(=O)c2cccc(C#N)c2)cc1-c1ccc(C(=O)Nc2ccncc2)cc1 obs_value=0

Q: Item "Clc1ccc(-c2cc(-c3c[nH]nc3-c3ccccn3)ccn2)cc1" : provide %Inh
Result: 44

Q: Item "Cc1cc(N2CCC(NS(=O)(=O)c3ccc(F)cc3)CC2)nc(Nc2cccc(C#N)c2)n1.O=C(O)C(F)(F)F" : provide %Inh
Result: 0

Q: Item "CC(C)(C)c1ccc(-n2cnc3c(N)ncnc32)cc1" : provide %Inh
Result: 0

Q: Item "Nc1nc(-c2ccccn2)c(-c2ccnc3ccccc23)s1" : provide %Inh
Result: 59

Q: Item "Fc1cccc(COc2ccc(Nc3ncnc4nn5ccccc5c34)cc2Cl)c1" : provide %Inh
Result: 0

Q: Item "Oc1ccc2ncnc(Nc3ccc(OCc4ccccc4)cc3)c2c1" : provide %Inh
Result: 0

Q: Item "COC(=O)c1c(-c2ccccc2)c2cc(Cl)ccc2c(=O)n1Cc1ccc(S(C)(=O)=O)cc1" : provide %Inh
Result: 0

Q: Item "Cl.Fc1ccccc1COc1ccc(Nc2ncnc3ccc(-c4nnc(C(F)(F)F)o4)cc23)cc1Cl" : provide %Inh
Result: 0

Q: Item "CN1CCC(n2cnc(-c3ccc(F)cc3)c2-c2ccnc(NC3CCNCC3)n2)CC1" : provide %Inh
Result: 0

Q: Item "Cl.O=S(=O)(c1cccc(F)c1)c1ccc(Nc2ncnc3cc(Br)sc23)cc1Cl" : provide %Inh
Result: 0

---

- System: SRPK3
- Experimental context: concentration: 1 μM, replicates: in singlicate; n = 1
# reported %Inh; entries follow
Unit % implied. Number only.

compound=COc1cc2ncnc(Nc3ccc(OCc4ccccc4Br)c(Cl)c3)c2cc1OC.Cl units_label=% obs_value=5

Q: Item "COc1ccc(NC(=O)c2ccc(-c3cc(-c4nnc(C)o4)ccc3C)cc2)cc1" : provide %Inh
Result: 8

Q: Item "Cc1ccc(C)c(NC(=O)NCCNc2ccnc(Nc3ccc(F)cc3)n2)c1" : provide %Inh
Result: 0

Q: Item "Cl.Fc1ccccc1COc1ccc(Nc2ncnc3ccc(-c4nnc(C(F)(F)F)o4)cc23)cc1Cl" : provide %Inh
Result: 0

Q: Item "Nc1n[nH]c2nnc(-c3ccccc3)cc12" : provide %Inh
Result: 1

Q: Item COc1ccc(Nc2nccc(N3CCC(NC(=O)Nc4ccc5c(c4)OCO5)C3)n2)cc1 (centres unmarked) : provide %Inh
Result: 17

Q: Item "O=C(c1ccc(-c2cc(-c3c[nH]nc3-c3ccccn3)ccn2)cc1)N1CCCC1" : provide %Inh
Result: 26

---

- Tested on: RIOK3;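 also: kd values determined as follow-up on hits from a single-replicate KINOMEscan panel screen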
Reported property: Kd (nM)
Unit nM implied. Number only.

Q: Item "Nc1nc(-c2ccc3c(N)n[nH]c3c2)cc(N2CCC[C@@H](C(=O)Nc3ccccc3)C2)n1.O=C(O)C(F)(F)F.O=C(O)C(F)(F)F" : provide Kd
Result: 570

---

# reported %Inh; entries follow
- System: ERK2
- Construct: gene MAPK1
- Experimental context: concentration: 1 μM, replicates: in singlicate; n = 1
Unit % implied. Number only.

Solved entries:
molecule=O=C(c1ccc(-c2cc(-c3c[nH]nc3-c3ccccn3)ccn2)cc1)N1CCCC1 reported_property=%Inh units_label=% obs_value=32
molecule="COc1ccc(Nc2nccc(N3CCC(NC(=O)c4cccc(NC(C)=O)c4)C3)n2)cc1 (stereo not drawn)" reported_property=%Inh units_label=% obs_value=0

Q: Item "CCn1c(-c2ccncc2)nc2cnccc21" : provide %Inh
Result: 0

Q: Item "O=C(NCCCN1CCCC1=O)c1cnc(NCc2cc(Cl)ccc2Cl)nc1NC1CCNCC1" : provide %Inh
Result: 11

Q: Item "CNc1nccc(-c2c(-c3ccc(F)cc3)ncn2CCCN2CCOCC2)n1" : provide %Inh
Result: 1

Q: Item "Nc1nccc2scc(-c3ccc4c(c3)CCN4C(=O)Cc3cc(F)ccc3F)c12" : provide %Inh
Result: 0

---

- Tested on: NEK6
- Experimental context: concentration: 1 μM, replicates: in singlicate; n = 1
One threshold, 6%, splits the recorded %Inh values: lower ones are fulfilled, equal or higher ones are not fulfilled.

molecule=O=C(Nc1ccccc1)Nc1ccc(Oc2ccc3nccn3n2)cc1 subject_of_test=NEK6 group=fulfilled
molecule=Fc1ccc(-c2ncn(CCCNCc3ccccc3)c2-c2ccncc2)cc1 subject_of_test=NEK6 group="not fulfilled"
molecule=CNc1nccc(-c2c(-c3ccc(F)cc3)ncn2C2CCN(C)CC2)n1 subject_of_test=NEK6 group=fulfilled

Q: Does the reported %Inh of the following molecule sit strictly below 6%? "CN1CCC(n2cnc(-c3ccc(F)cc3)c2-c2ccnc(NC3CCNCC3)n2)CC1"
Result: not fulfilled

Q: Does the reported %Inh of the following molecule sit strictly below 6%? "Nc1nc(-c2ccccn2)c(-c2ccnc3ccccc23)s1"
Result: fulfilled

Q: Does the reported %Inh of the following molecule sit strictly below 6%? "Nc1n[nH]c2nnc(-c3ccccc3)cc12"
Result: fulfilled

Q: Does the reported %Inh of the following molecule sit strictly below 6%? "CNc1nccc(-c2c(-c3ccc(F)cc3)ncn2CCCN2CCOCC2)n1"
Result: fulfilled

Q: Does the reported %Inh of the following molecule sit strictly below 6%? "Cc1cccc(-c2nc(Nc3ccc4[nH]nnc4c3)c3ccccc3n2)n1"
Result: fulfilled

Q: Does the reported %Inh of the following molecule sit strictly below 6%? "CSc1nn2c(=O)cc(N3CCOCC3)nc2n1Cc1cccc(Cl)c1Cl"
Result: not fulfilled

---

# reported %Inh; entries follow
- System: RPS6KA4(Kin.Dom.2-C-terminal)
- Experimental context: concentration: 1 μM, replicates: in singlicate; n = 1
Unit % implied. Number only.

Solved entries:
molecule=CCc1nc(-c2cccc(N(C)S(=O)(=O)c3ccccc3)c2)c(-c2ccnc(Nc3ccc(N4CCN(C(C)=O)CC4)nc3)n2)s1 obs_value=0
molecule=Nc1nc(-c2ccc3c(N)n[nH]c3c2)cc(N2CCCCC2)n1 obs_value=0
molecule="CCCc1ccc(S(=O)(=O)NC2CCN(c3ccnc(Nc4ccc(OC)cc4)n3)C2)cc1 (centres unmarked)" obs_value=0

Q: Item "FC(F)(F)c1cc(Nc2nccc(-c3c(-c4ccc(Cl)cc4)nn4ncccc34)n2)ccc1Cl" : provide %Inh
Result: 0

Q: Item "CC(C)N1CCC(n2cnc(-c3ccc(F)cc3)c2-c2ccnc(N)n2)CC1" : provide %Inh
Result: 0

Q: Item "Nc1nc(-c2ccc3c(N)n[nH]c3c2)cc(N2CCC[C@@H](C(=O)Nc3ccccc3)C2)n1.O=C(O)C(F)(F)F.O=C(O)C(F)(F)F" : provide %Inh
Result: 0

Q: Item "Fc1ccc(-c2ncn(CCCNCc3ccccc3)c2-c2ccncc2)cc1" : provide %Inh
Result: 32

Q: Item "CS(=O)(=O)CCNCc1nc(-c2ccc3ncnc(Nc4ccc(OCc5cccc(F)c5)c(Cl)c4)c3c2)cs1.Cl" : provide %Inh
Result: 0

Q: Item "COc1ccc(NC(=O)c2ccc(-c3cc(-c4nnc(C)o4)ccc3C)cc2)cc1" : provide %Inh
Result: 0
